PROTOCOL_SUMMARY: Tmax in ferret at 0.1 mg/kg, po
Type: ADME, organism-based, Mustela putorius furo
Design: dose 0.1 mg/kg, route oral
EXPERIMENTAL_PARAMETERS: in vivo
READOUT_LABEL: Tmax (min)
Record the value in min, omitting the unit from your answer.

Reported Tmax of "CC(C)Nc1nc2oc3c(NCCCN4CCCC4=O)ncnc3c2c2c1CCC(C)(C)C2" : 24

###

PROTOCOL_SUMMARY: AUC (0 to t) in ferret at 0.1 mg/kg, po
Assay type: ADME, organism-based, Mustela putorius furo
Design: dose 0.1 mg/kg, route oral
EXPERIMENTAL_PARAMETERS: plasma
READOUT_LABEL: AUC(0-t) (ng·h/mL)
Reply with just the number (in ng·h/mL).

AUC(0-t) reported for this compound "CC(C)Nc1nc2oc3c(NCCCN4CCCC4=O)ncnc3c2c2c1CCC(C)(C)C2" : 13.9
